Below, each of the compounds is paired with its reported melting point value.
Test readout: melting point

O=S(=O)(c1ccccc1)n1ccc2ccccc21 : 78 to 80 °C
COc1ccc(/C=N/c2ccc(-c3ccc(/N=N/c4ccccc4)cc3)cc2)cc1 : 214 to 215 °C
Cc1nc(C=O)cs1 : 56 to 58 °C
O=C(O)c1cccc2ccsc12 : 176 to 178 °C
O=[N+]([O-])c1cccc(Oc2ccccn2)c1 : 93 to 95 °C
CSc1nc(N)ns1 : 156 to 158 °C
NC(=O)NCc1ccc(F)cc1 : 172 to 175 °C
Cn1ccc2cc(Br)ccc21 : 43 to 44 °C
O=C(O)CCCCCCCCCCCCC(=O)O : 127 °C
O=C=Nc1ccc(Cl)c([N+](=O)[O-])c1 : 66 °C
O=S1(=O)CCN(Cc2cccs2)CC1 : 126 to 128 °C
N#CCC(=O)c1ccco1 : 81 to 83 °C
N#Cc1ccc(N2CCNCC2)nc1 : 131 °C

====

Below, each of the compounds is paired with its reported melting point value.
Test readout: melting point

CC(C)(C)OC(=O)NCc1ncccc1F : 56 to 58 °C
Cc1cc(C)nc(NNC=Cc2ccc([N+](=O)[O-])cc2)n1 : 183 to 184 °C
O=S(=O)(c1ccccc1)N(F)S(=O)(=O)c1ccccc1 : 110 to 115 °C
Oc1cccnc1Br : 185 to 188 °C
CCc1nc(NC(=O)NS(=O)(=O)c2cccs2)nc(Cl)c1C : 187 to 188 °C
O=C(O)C#CC(=O)O : 180 to 187 °C
O=[N+]([O-])c1c(Cl)ccc2nsnc12 : 149 to 152 °C
O=C(O)c1cncc(C#Cc2ccccc2)c1 : 245 to 247 °C
Cc1ccc(S(=O)(=O)NC(Cc2ccccc2)C(=O)CCl)cc1 (configuration not stated) : 105 to 109 °C
N#Cc1cccc2ccsc12 : 67.5 to 72.5 °C
O=C(O)C1(O)CC1 : 108 to 110 °C
N#Cc1ccc2nonc2c1 : 86 to 88 °C

====

Below, each of the compounds is paired with its reported melting point value.
Test readout: melting point

O=Cc1ccc2cccc(O)c2n1 : 96 to 100 °C
ClCc1ccc(-c2nccs2)cc1 : 67 to 69 °C
CSc1nc(N)nc(-c2ccncc2)n1 : 234 to 237 °C
NNC(=O)c1ccc(-c2ccccc2)cc1 : 194 °C
NC(=S)c1cccc(Cl)c1 : 110 to 113 °C
CSc1nc(=O)n2ccccc2n1 : 150 to 151 °C
Cc1cc(C(C)(C)C)nc(C(C)(C)C)c1 : 33 to 36 °C
N#Cc1c(Cl)cccc1Oc1ccccc1 : 61 °C
CCNCC(=O)O : 182 to 186 °C
CSc1nn(-c2ccccc2)cc1C(N)=S : 130 to 133 °C
O=C(c1ccc2c(c1)C(=O)OC2=O)c1ccc2c(c1)C(=O)OC2=O : 219 to 226 °C
CCOc1ccc(C(=O)C=CC(=O)O)cc1 : 140 to 144 °C
O=[N+]([O-])c1ccc(NN=Cc2cccc3c(Br)ccc([N+](=O)[O-])c23)c([N+](=O)[O-])c1 : 243 to 244 °C
CCOC(=O)c1c(-c2cccs2)csc1N : 85 to 87 °C
Oc1cc(C(F)(F)F)nc2c(Br)cccc12 : 136 to 137 °C
CS(=O)(=O)c1csc(C(=O)Cl)c1Cl : 181 to 185 °C
Cc1ccc(C#N)c(C#N)c1 : 118 to 121 °C
Cc1nn(-c2ccccc2)nc1CBr : 72 to 73 °C
N#Cc1c(NC(=O)c2ccc(Cl)cc2Cl)sc2c1CCCC2 : 201 to 202 °C
S=c1[nH]ccn1-c1ccc(Br)cc1 : 244 to 246 °C
O=C(Nc1ccccc1)OC1C=CC=CCC1OC(=O)Nc1ccccc1 (stereo unspecified) : 179 to 180 °C

====

Below, each of the molecules is paired with its reported melting point value.
Test readout: melting point

O=C(CBr)c1cc(-c2ccc(Cl)cc2Cl)no1 : 85 to 87 °C
CC1=C[C@@]2(C)O[C@@H](c3ccccc3)[C@@H]1C(C#N)(C#N)C2(C#N)C#N : 170 to 171 °C
OCc1cc(O)cc(O)c1 : 181 to 186 °C

====

Test readout: melting point

O=CN(C=O)C=O : 100 to 101 °C
N=C(N)NCCC[C@H](NC(=O)OCc1ccccc1)C(=O)O : 173 to 175 °C
Ic1ccc(-n2cccn2)cc1 : 91 to 92 °C
O=C(O)c1cc(F)c(F)c(O)c1F : 143 to 147 °C
NC(=S)CS(=O)(=O)c1ccc(Cl)cc1 : 188 to 192 °C
Cc1ccc([N+](=O)[O-])c(CCl)c1 : 41 to 47 °C
CN1CCOc2cc(S(=O)(=O)Cl)ccc21 : 66 to 68 °C
O=C(O)c1cc(F)nc(F)c1F : 125 to 127 °C
O=C1OC(O)c2c(Cl)c(Cl)c(Cl)c(Cl)c21 (configuration not stated) : 240 to 248 °C
CNC(c1cccc(C(F)(F)F)c1)C(NC)c1cccc(C(F)(F)F)c1 (configuration not stated) : 113 to 115 °C
COc1cc(NC(=S)NN)cc(OC)c1OC : 178 to 179 °C
S=C=Nc1ccc(N2CCOCC2)cc1 : 84 to 85 °C

====

Test readout: melting point

N#CC1(c2ccc(Cl)cc2)CCCCC1 : 88 to 92 °C
CC(=O)OC1CCC2C3CCC4CC(=C(C)C)CCC4(C)C3CCC12C (stereo not given) : 107 to 108 °C
CC(=O)c1ccnc(Cl)c1 : 36.5 to 39 °C
O=C1C(=Cc2ccco2)SC(=S)N1CN1CCCCC1 : 120 to 121 °C
O=S(=O)(c1ccc(Cl)cc1)N(C1CCNCC1)C1CC1 : 111 to 114 °C
COC(=O)c1cnc(SCC(=O)NC(=O)Nc2ccccc2)n1C : 204 to 205 °C
CC1=Nc2ccccc2Nc2c1c(=O)n(-c1ccccc1)c1ccccc21 : 297 to 299 °C
COc1ccc(C=NN=C2NC(=O)C(=Cc3ccccc3)S2)cc1 : 255 to 257 °C
Cc1nc(-c2ccc3c(c2)CCO3)sc1C(=O)Cl : 150 to 154 °C
O=S(=O)(Cl)c1ccc(-c2ccno2)s1 : 69 to 70 °C
ClCc1cccc(-c2ncccn2)c1 : 68 to 70 °C
N#Cc1c(F)cc(F)cc1F : 57 to 61 °C
CCC(C)Cn1c(O)nnc1S (stereo not given) : 147 to 151 °C
Cc1nc(CC(=O)O)c(C)s1 : 110 to 113 °C
Ic1ccc(Cc2ccccc2)cc1 : 38 to 40 °C
Oc1ccc(C(F)(F)F)cn1 : 145 to 148 °C
O=C(O)c1cn(C2CCCCC2)c2ccccc2c1=O : 237 to 238 °C
COc1ccc(-c2noc(CCl)n2)cc1 : 52 to 53 °C
Cc1nc(-c2cccc(-n3cccc3)c2)sc1C(=O)NN : 185 to 186 °C
O=C(CO)c1ccc(Br)cc1 : 137 to 142 °C

====

Below, each of the molecules is paired with its reported melting point value.
Test readout: melting point

OCC1OC(n2cnc3c(S)ncnc32)C(O)C1O (stereo not drawn) : 218 to 221 °C
CCCC(N)P(=O)(O)O (stereo not drawn) : 276 to 281 °C
Cc1nc2scc(-c3ccccc3)c2c(=O)n1NC(=O)c1ccc(F)cc1 : 138 to 140 °C
C=CCSc1sc(C(=O)OCC)c2c1C(=O)CCC2 : 57 to 60 °C
CN(C)c1ccc(/C=C2\C(=O)C3CCC(C)(C2=O)C3(C)C)cc1 (stereo not drawn) : 152 to 153 °C
Nc1nc2ccccc2n1Cc1ccc(F)cc1 : 191 to 193 °C
CCOC(=O)c1ccc2c(c1)nnn2C : 105 to 108 °C
O=C(O)CSCCS(=O)(=O)c1ccc(Cl)cc1 : 127 to 129 °C
O=C(c1ccc(F)cc1)[C@H]1CCCC[C@H]1C(=O)O (relative stereo) : 136 to 139 °C
O=C(O)[C@H](O)c1ccccc1Cl : 118 to 121 °C
CC(=O)CCc1c[nH]c2ccccc12 : 94 to 96 °C
c1ccc(CSc2nnc(SCc3ccccc3)nn2)cc1 : 137 to 139 °C
CNCCCCCCN(C)N(O)N=O : 102 to 108 °C
CSC(=NS(=O)(=O)c1ccc(C)cc1)SC : 109 to 110 °C
CSc1nn(CO)c(=S)s1 : 72 to 74 °C
Cc1oc(-c2ccccc2)nc1C(=O)Cl : 135 to 136 °C
CC(=O)O[C@H]1[C@H](OC(C)=O)[C@@H](S(=O)(=O)c2ccccc2)OC[C@H]1OC(C)=O : 145 to 148 °C
CC=C1CCC2C3CCC4CC(OC(C)=O)CCC4(C)C3CCC12C (stereo not drawn) : 118 to 120 °C
